Target: UniProt Q9NYW0
Sequence (Q9NYW0 whole entry): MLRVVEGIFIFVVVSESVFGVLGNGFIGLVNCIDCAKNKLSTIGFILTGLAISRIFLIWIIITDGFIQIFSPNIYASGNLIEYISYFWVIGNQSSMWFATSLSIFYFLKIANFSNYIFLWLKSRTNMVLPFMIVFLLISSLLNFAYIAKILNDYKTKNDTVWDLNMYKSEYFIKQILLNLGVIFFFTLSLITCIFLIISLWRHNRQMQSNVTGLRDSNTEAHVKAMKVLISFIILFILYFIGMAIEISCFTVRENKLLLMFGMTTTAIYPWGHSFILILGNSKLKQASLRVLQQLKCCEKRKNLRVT
Test: Calcium mobilization assay, HEK293T-Gα16gust44 cells expressing TAS2R10
Settings: maximal concentration tested: sucralose 100 mM, neotame 30 µM, Ace-K 300 mM, RebA 4 mM, RebM 4 mM, mogroside V 5 mM, erythritol 200 mM, D-allulose 500 mM, thaumatin 100 mM
observationType: Response of TAS2R10

The examples below pair each entry with its known result.
C=C1C[C@@]23CC[C@H]4[C@@](C)(CCC[C@@]4(C)C(=O)O[C@@H]4O[C@H](CO)[C@@H](O)[C@H](O[C@@H]5O[C@H](CO)[C@@H](O)[C@H](O)[C@H]5O)[C@H]4O[C@@H]4O[C@H](CO)[C@@H](O)[C@H](O)[C@H]4O)[C@@H]2CC[C@]1(O[C@@H]1O[C@H](CO)[C@@H](O)[C@H](O[C@@H]2O[C@H](CO)[C@@H](O)[C@H](O)[C@H]2O)[C@H]1O[C@@H]1O[C@H](CO)[C@@H](O)[C@H](O)[C@H]1O)C3 [RebM, Rebaudioside M]; −
COC(=O)[C@H](Cc1ccccc1)NC(=O)[C@H](CC(=O)O)NCCC(C)(C)C; −
OC[C@H]1O[C@H](O[C@]2(CCl)O[C@H](CCl)[C@@H](O)[C@@H]2O)[C@H](O)[C@@H](O)[C@H]1Cl; #^a
O=C(CO)[C@H](O)[C@H](O)[C@H](O)CO; −
OC[C@@H](O)[C@@H](O)CO; −

Turning now to a further record.
// Response of TAS2R10 value for CC1=CC(=O)NS(=O)(=O)O1 : −
